From: paper PMC12993615

target: FABP3 (Homo sapiens, UniProt P05413)
Sequence (P05413 whole entry, species assumed): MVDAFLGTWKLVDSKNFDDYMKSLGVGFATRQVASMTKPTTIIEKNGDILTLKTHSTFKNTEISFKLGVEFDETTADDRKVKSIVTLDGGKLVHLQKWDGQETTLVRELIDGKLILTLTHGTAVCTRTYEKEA
measuredProperty: Ki (µM)
# unit: µM | format: bare number

So for COc1ccccc1[C@@H]1[C@H](C(=O)O)[C@@H](c2ccccc2OC)[C@H]1C(=O)OC1Cc2ccccc2C1 [ART26.12] , the logged Ki turned out to be 71.3

====

assayOverview: Oral bioavailability / pharmacokinetics in rats
Type: in vivo
settings: Sprague Dawley, rat, plasma; male rats, PO 10 mg/kg
Protocol: Following intravenous and oral administration, blood samples (ca .2 mL) were collected from the jugular vein. For IV group, blood samples were collected at .083, .25, .5, 1, 2, 4, 6, 8, 24 hours post-dose. For PO group, blood samples were collected at .25, .5, 1, 2, 4, 6, 8, 24 hours post-dose. Blood samples were collected into tubes containing the anticoagulant K2EDTA. […]
measuredProperty: Tmax

Looking up `COc1ccccc1[C@@H]1[C@H](C(=O)O)[C@@H](c2ccccc2OC)[C@H]1C(=O)OC1Cc2ccccc2C1` , I see its Tmax listed as ~30 min
